biological target: T1, PD-1 biotin (UniProt Q15116 25-167, limits assumed, biotin (site not stated)); assay: PD-1/PD-L1 blocking ELISA, interpolated on a standard curve of a PD-1 neutralizing antibody
T1 construct: also called biotinylated PD-1
T1 sequence (Q15116 25-167 limits assumed): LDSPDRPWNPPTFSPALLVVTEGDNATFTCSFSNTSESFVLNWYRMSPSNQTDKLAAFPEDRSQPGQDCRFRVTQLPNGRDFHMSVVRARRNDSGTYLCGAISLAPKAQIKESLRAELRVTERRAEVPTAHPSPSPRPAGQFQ
readout-type: Percent Blocking (percent)
Only the number, expressed in percent, is required.

Use the examples below as a reference point.
binder: PD-1 antibody 3H4 (antibody, V domains shown, detection used an anti-human IgG secondary antibody; also called Murine 3H4) VH: QIQLQQSGPELVKPGASVKISCKASGYTFTDYYINWVKQKPGQGLEWIGWIYPGSVNTKYNEKFRGKATLTVDTSSSTAYIQLSGLTSEDTAVYFCARYSNWFFDVWGAGTAVTVS VL: DIVMTQSPSSLSASLGERVSLTCRASQEISGYLSWLQQKPDGTIKRLIYAASTLDSGVPKRFSGSRSGSDYSLSISSLESEDFADYYCLQYASYPYTFGGGTKLEIKR
readout-type: Percent Blocking
uom: percent
quantitative-readout: 46
--
binder: PD-1 antibody 1-33 (antibody, V domains shown, detection used an anti-human IgG secondary antibody) VH: QVQLVQSGAEVKKPGASVRVSCKASGYTLTSYYIHWVRQAPGQGLEWMGIINPRGATISYAQKFQGRVTMTRDTSTSTVYMELRNLKSEDTALYYCATAGIYGFDFDYWGRGTLVTVSS VL: QSALTQPASVSGSPGQSITISCTGTSNDVGGYNYVSWYQHHPGKAPKLIIYDVTNRPSGVSDRFSGSKSGNTASLTISGLLAEDEGDYYCSSYTIVTNFEVLFGGGTKLTV
readout-type: Percent Blocking
uom: percent
quantitative-readout: 68
--
binder: PD-1 antibody 1-17 (antibody, V domains shown, detection used an anti-human IgG secondary antibody) VH: QVQLQESGPGVVKPSGTLSLTCAISGGSIGSGGSIRSTRWWSWVRQSPGKGLEWIGEIYHSGSTNYNPSLKSRVTISLDKSRNHFSLRLNSVTAADTAVYYCARQDYGDSGDWYFDLWGKGTMVTVSS VL: NFMLTQPHSVSESPGKTVTISCTRSSGSIASNSVQWYQQRPGSSPTTVIYEDNQRPSGVPDRFSGSIDSSSNSASLTVSGLKTEDEADYYCQSSDSSAVVFGSGTKLTVL
readout-type: Percent Blocking
uom: percent
quantitative-readout: 7

With those in mind, consider the next binder.
Ask: Could you tell me which Percent Blocking is on file for PD-1 antibody 1-28 (antibody, V domains shown, detection used an anti-human IgG secondary antibody) VH: EVQLVQSGAEVKKPGASVKVSCKASGYRFTSYGISWVRQAPGQGLEWMGWISAYNGNTNYAQKLQGRVTMTTDTSTNTAYMELRSLRSDDTAVYYCARDADYSSGSGYWGQGTLVTVSS VL: SYELTQPPSVSVSPGQTARITCSGDALPKQYAYWYQQKPGQAPVMVIYKDTERPSGIPERFSGSSSGTKVTLTISGVQAEDEADYYCQSADNSITYRVFGGGTKVTVL ?
Reply: 87
